Source listed as ChEMBL document CHEMBL5335863.

Entries and their IC50
system.name: Programmed cell death protein 1/Programmed cell death 1 ligand 1 (Homo sapiens, UniProt Q15116+Q9NZQ7)
Sequence (Q15116 whole entry): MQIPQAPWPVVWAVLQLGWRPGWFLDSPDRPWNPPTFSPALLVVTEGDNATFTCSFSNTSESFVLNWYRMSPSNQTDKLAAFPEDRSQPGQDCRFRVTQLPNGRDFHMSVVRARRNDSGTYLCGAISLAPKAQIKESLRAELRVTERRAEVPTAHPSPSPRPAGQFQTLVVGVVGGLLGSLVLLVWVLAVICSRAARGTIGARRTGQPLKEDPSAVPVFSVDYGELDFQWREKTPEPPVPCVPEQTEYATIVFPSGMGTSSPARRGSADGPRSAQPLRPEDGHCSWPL
Sequence (Q9NZQ7 whole entry): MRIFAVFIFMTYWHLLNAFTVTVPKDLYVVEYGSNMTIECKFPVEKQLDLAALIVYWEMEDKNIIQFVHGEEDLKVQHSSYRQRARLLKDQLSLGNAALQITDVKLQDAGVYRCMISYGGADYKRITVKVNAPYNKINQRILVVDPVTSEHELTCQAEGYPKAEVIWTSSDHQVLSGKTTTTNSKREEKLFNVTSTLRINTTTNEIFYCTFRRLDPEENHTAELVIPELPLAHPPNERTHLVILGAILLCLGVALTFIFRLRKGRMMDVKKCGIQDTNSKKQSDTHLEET
assay.method.text: Inhibition of PD-1/PD-L1 interaction (unknown origin) incubated for 60 min by HTRF assay
parameter.measured: IC50 (nM)

| molecule | parameter.measured | quantitative.readout |
| --- | --- | --- |
| Cc1c(COc2cc(OCc3cccc(C#N)c3)c(CN3CCC(O)CC3)cc2Cl)cccc1-c1cccc2c(Oc3cc(OCc4cccc(C#N)c4)c(CN4CCC(O)CC4)cc3Cl)ncnc12 | IC50 | 75.8 |
| COCCNCc1cc(Cl)c(OCc2cccc(-c3cccc4c(Oc5cc(OCc6cccc(C#N)c6)c(CNCCOC)cc5Cl)ncnc34)c2C)cc1OCc1cccc(C#N)c1 | IC50 | 101 |
| Cc1c(COc2cc(OCc3cccc(C#N)c3)c(CNC3CCOCC3)cc2Cl)cccc1-c1cccc2c(Oc3cc(OCc4cccc(C#N)c4)c(CNC4CCOCC4)cc3Cl)ncnc12 | IC50 | 59.7 |
| Cc1c(COc2cc(OCc3cccc(C#N)c3)c(CN3CC[C@H](O)C3)cc2Cl)cccc1-c1cccc2c(Oc3cc(OCc4cccc(C#N)c4)c(CN4CC[C@H](O)C4)cc3Cl)ncnc12 | IC50 | 55.5 |
| Cc1c(COc2cc(OCc3cccc(C#N)c3)c(CNC(CO)CO)cc2Cl)cccc1-c1cccc2c(Oc3cc(OCc4cccc(C#N)c4)c(CNC(CO)CO)cc3Cl)ncnc12 | IC50 | 47.2 |
| Cc1c(COc2cc(OCc3cccc(C#N)c3)c(CNC3CC3)cc2Cl)cccc1-c1cccc2c(Oc3cc(OCc4cccc(C#N)c4)c(CNC4CC4)cc3Cl)ncnc12 | IC50 | 390 |
| Cc1c(COc2cc(OCc3cccc(C#N)c3)c(CN3CC[C@@H](O)C3)cc2Cl)cccc1-c1cccc2c(Oc3cc(OCc4cccc(C#N)c4)c(CN4CC[C@@H](O)C4)cc3Cl)ncnc12 | IC50 | 46.2 |
| Cc1c(COc2cc(OCc3cccc(C#N)c3)c(CNC3CCC3)cc2Cl)cccc1-c1cccc2c(Oc3cc(OCc4cccc(C#N)c4)c(CNC4CCC4)cc3Cl)ncnc12 | IC50 | 105 |
| Cc1c(COc2cc(OCc3cccc(C#N)c3)c(CN(C)CCO)cc2Cl)cccc1-c1cccc2c(Oc3cc(OCc4cccc(C#N)c4)c(CN(C)CCO)cc3Cl)ncnc12 | IC50 | 44.8 |
